- target.entity: HLA A*0201 (human)
- procedure.details: competition with radiolabeled probe peptide, purified MHC
readout.type: IC50

I am curious: what IC50 value has been reported for ILWENNIKL (modifications not checked) [NS1854-862] ?
2.7 nM

I would be grateful if you could share the reported IC50 for FLAIPPTAGV (modifications not checked) [C57-66] .
3.6 nM

What does the record list as IC50 for ALFSGVSWV (modifications not checked) [E727-735] ?
20 nM

Tell me the measured IC50 of KLEKASLIEV (modifications not checked) [NS1987-996] , please.
77 nM

// lookup IC50 for YLALIATFKI (modifications not checked) [NS2A1202-1211]
10 nM

# input binder: SLAAIANQAV (modifications not checked) [NS4B2311-2320] ; wanted: its IC50
6.7 nM

I would be grateful if you could share the reported IC50 for KLNDWDFVV (modifications not checked) [NS31876-1884] .
1.8 nM

May I ask what IC50 has been recorded for ILALFLAHYI (modifications not checked) [M250-259] ?
6.3 nM
